Target: chorismate synthase (CS) (Capnoides sempervirens)
Sequence (P27793 58-447): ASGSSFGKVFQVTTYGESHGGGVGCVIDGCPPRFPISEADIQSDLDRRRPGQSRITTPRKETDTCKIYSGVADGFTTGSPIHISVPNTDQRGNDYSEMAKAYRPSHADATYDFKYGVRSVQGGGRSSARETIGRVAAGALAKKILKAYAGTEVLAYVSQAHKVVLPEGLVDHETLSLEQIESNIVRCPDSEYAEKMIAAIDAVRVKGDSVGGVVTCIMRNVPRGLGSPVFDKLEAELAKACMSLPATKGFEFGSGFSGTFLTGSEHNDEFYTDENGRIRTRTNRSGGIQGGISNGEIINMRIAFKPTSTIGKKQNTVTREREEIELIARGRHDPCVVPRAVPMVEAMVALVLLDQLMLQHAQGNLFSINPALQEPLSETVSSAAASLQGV
Measurement kind: Kd (µM)
Numbers only, in µM.

# compound Nc1cc(S(=O)(=O)O)cc2cc(S(=O)(=O)O)c(/N=N/c3cc([N+](=O)[O-])cc(Cl)c3O)c(O)c12 ; its Kd = 1

----------
Molecular target: chorismate synthase (CS) (Neurospora crassa)
Sequence (Q12640 whole entry): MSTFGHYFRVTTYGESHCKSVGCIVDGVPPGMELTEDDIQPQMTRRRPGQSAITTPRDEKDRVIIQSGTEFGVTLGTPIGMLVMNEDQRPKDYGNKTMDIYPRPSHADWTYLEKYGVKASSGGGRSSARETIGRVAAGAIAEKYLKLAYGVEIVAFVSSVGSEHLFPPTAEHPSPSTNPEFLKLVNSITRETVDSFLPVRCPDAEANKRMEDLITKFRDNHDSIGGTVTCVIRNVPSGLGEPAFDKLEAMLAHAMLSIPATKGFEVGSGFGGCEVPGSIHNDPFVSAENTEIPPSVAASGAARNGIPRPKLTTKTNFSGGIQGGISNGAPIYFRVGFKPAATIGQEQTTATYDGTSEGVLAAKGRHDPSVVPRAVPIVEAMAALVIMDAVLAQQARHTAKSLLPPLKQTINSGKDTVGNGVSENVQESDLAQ
Measurement kind: pKd
Give bare numbers, as −log10 of the molar value.

# compound Nc1cc(S(=O)(=O)O)cc2cc(S(=O)(=O)O)c(/N=N/c3cc([N+](=O)[O-])cc(Cl)c3O)c(O)c12 ; its pKd = 5.46

----------
Molecular target: PbCS (Paracoccidioides brasiliensis)
Sequence (C1GBW5 entry or part of it): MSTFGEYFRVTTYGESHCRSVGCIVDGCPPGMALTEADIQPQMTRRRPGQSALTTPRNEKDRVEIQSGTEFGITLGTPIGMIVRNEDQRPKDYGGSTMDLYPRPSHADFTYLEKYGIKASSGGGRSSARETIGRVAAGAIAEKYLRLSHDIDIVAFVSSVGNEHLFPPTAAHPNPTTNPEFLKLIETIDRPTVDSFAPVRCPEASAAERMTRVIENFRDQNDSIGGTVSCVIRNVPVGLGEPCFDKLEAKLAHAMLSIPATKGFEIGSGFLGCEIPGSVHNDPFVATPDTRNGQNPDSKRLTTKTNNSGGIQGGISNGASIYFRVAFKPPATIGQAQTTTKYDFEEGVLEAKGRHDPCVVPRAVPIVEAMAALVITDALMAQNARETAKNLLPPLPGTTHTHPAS
Test: Isothermal titration calorimetry (ITC)
Conditions: single site binding model, 25 °C, pH 8, triplicates, read-out: dissociation constant by ITC
Measurement kind: Kd (µM)
Answers are plain numbers, in µM.

# compound Nc1cc(S(=O)(=O)O)cc2cc(S(=O)(=O)O)c(/N=N/c3cc([N+](=O)[O-])cc(Cl)c3O)c(O)c12 [PH011669] ; its Kd = 3.8
